Cited source: PubChem BioAssay (NCI)

System: HCC-2998 colon
assay-procedure: NCI tumour cell line growth inhibition, 48 h
Listed below: GI50 values for each entry.
recorded-endpoint: GI50

- compound: "CN[C@@H](C)C(=O)N[C@H]1CCS[C@H]2CC(C)(C)[C@@H](C(=O)N[C@H]3c4ccccc4C[C@H]3OCC#CC#CCO[C@@H]3Cc4ccccc4[C@@H]3NC(=O)[C@H]3N4C(=O)[C@@H](NC(=O)[C@H](C)NC)CCS[C@H]4CC3(C)C)N2C1=O"
  recorded-endpoint: "GI50"
  result-value: "19.5 µM"
- compound: "COc1ccc2c(c1)/C(=N/OC(C)=O)c1c-2c(Nc2cccc(/C(C)=N/OC(C)=O)c2)nc2ccccc12"
  recorded-endpoint: "GI50"
  result-value: "70.8 µM"
- compound: "Clc1ccc(C(Cn2ccnc2)OCc2ccsc2Cl)c(Cl)c1 (configuration not stated)"
  recorded-endpoint: "GI50"
  result-value: "2.73 µM"
- compound: "COc1ccc2cc(C#Cc3ccc(-n4c(/C=C/c5cc(OC)c(OC)c(OC)c5)nc5ccccc5c4=O)c(C)c3)ccc2c1"
  recorded-endpoint: "GI50"
  result-value: "> 100 µM"
- compound: "O=C(Cc1n[nH]c(=O)c2ccccc12)OCc1c(Cl)cccc1Cl"
  recorded-endpoint: "GI50"
  result-value: "50.4 µM"
- compound: "Oc1c(Br)cc(Br)c2ccc(Cn3cc(-c4ccc(C(F)(F)F)cc4)nn3)nc12"
  recorded-endpoint: "GI50"
  result-value: "8.87 µM"
- compound: "C=CC(=O)N1CCN(CCCn2c(=O)c(-c3c(Cl)c(OC)cc(OC)c3Cl)cc3cnc(NC)nc32)CC1"
  recorded-endpoint: "GI50"
  result-value: "10.9 µM"

----------
Test system: HOP-62 NSCLC
assay-procedure: NCI tumour cell line growth inhibition, 48 h; in the data active means GI50 below about 0.43 µM; inactive means the rest
Outcomes: active, inactive

- compound: "O=C1/C(=C/c2ccccc2)CN(C(=O)CCN2CCC(=NO)CC2)C/C1=C\\c1ccccc1"
  qualitative-label: "inactive"
- compound: "COc1cccc2c1C(=O)c1c(O)c3c(c(O)c1C2=O)C[C@@](O)(C(=O)CO)C[C@@H]3OC1CC2C(OCN3CN2COC2C(C)OC(O[C@H]4C[C@](O)(C(=O)CO)Cc5c(O)c6c(c(O)c54)C(=O)c4c(OC)cccc4C6=O)CC23)C(C)O1 (stereo partly drawn)"
  qualitative-label: "active"
- compound: "C[CH2][Sn]([CH2]C)([O]C(=O)c1ccccc1F)[O]C(=O)c1ccccc1F"
  qualitative-label: "inactive"

----------
System: 786-0 renal
assay-procedure: NCI tumour cell line growth inhibition, 48 h
recorded-endpoint: TGI

- smiles-str: "CCNCCCNc1c2ccccc2nc2ccccc12"
  result-value: "5.39 µM"
- smiles-str: "O=C(c1ccco1)c1nc2ccc(Cl)cc2[n+]([O-])c1C(F)(F)F"
  result-value: "> 100 µM"
- smiles-str: "CCCCCCCCCCc1c2nc(c(CCCCCCCCCC)c3ccc([nH]3)c(CCCCCCCCCC)c3ccc([nH]3)c(CCCCCCCCCC)c3nc1C=C3)C=C2"
  result-value: "> 100 µM"
- smiles-str: "OCCCCC#Cc1ccccc1C#Cc1ccccn1"
  result-value: "> 100 µM"
- smiles-str: "O=C(CC(=O)n1nc(-c2ccccc2)c(N=Nc2ccccc2Cl)c1-c1ccccc1)Nc1ccc(Cl)cc1"
  result-value: "> 83.4 µM"

----------
Tested on: SK-MEL-2 melanoma
assay-procedure: NCI tumour cell line growth inhibition, 48 h

- molecule: "CCOc1cc(F)c([N+](=O)[O-])cc1[N+](=O)[O-]"
  study-system: "SK-MEL-2 melanoma"
  GI50: "1.89 µM"
- molecule: "Nc1ccc(S(=O)(=O)c2ccc(N)cc2)cc1"
  study-system: "SK-MEL-2 melanoma"
  GI50: "> 100 µM"
- molecule: "Clc1ccc(C(Cn2ccnc2)OCc2ccsc2Cl)c(Cl)c1 (configuration not stated)"
  study-system: "SK-MEL-2 melanoma"
  GI50: "2.4 µM"
- molecule: "COc1cc(Nc2ccnc(NCCNc3ccnc4cc(Cl)ccc34)n2)cc(OC)c1"
  study-system: "SK-MEL-2 melanoma"
  GI50: "1.91 µM"
- molecule: "COc1cc2c(/C=C3/C(=O)Nc4c3ccc3ccccc43)c(Cl)n(C)c2cc1C"
  study-system: "SK-MEL-2 melanoma"
  GI50: "< 0.0147 µM"
- molecule: "Nc1n[nH]c2cccc(C#Cc3cccc(NC(=O)c4ccc(N5CCOCC5)c(C(F)(F)F)c4)c3)c12"
  study-system: "SK-MEL-2 melanoma"
  GI50: "0.855 µM"
- molecule: "O=C(c1ccc(Cl)c(Cl)c1)N1CCN(C(=O)c2ccc(Cl)c(Cl)c2)C1=S"
  study-system: "SK-MEL-2 melanoma"
  GI50: "18.4 µM"

----------
Listed below: TGI values for each entry.
Tested on: MALME-3M melanoma
assay-procedure: NCI tumour cell line growth inhibition, 48 h
recorded-endpoint: TGI

- molecule: "CC1CCC2C(C)(C)CC3(C)CCC1C23O (centres undefined)"
  recorded-endpoint: "TGI"
  result-value: "26.2 µM"
- molecule: "O=C(CC(=O)n1nc(-c2ccccc2)c(N=Nc2ccccc2Cl)c1-c1ccccc1)Nc1ccc(Cl)cc1"
  recorded-endpoint: "TGI"
  result-value: "> 100 µM"
- molecule: "O=[N+]([O-])c1ccc2c(c1)c1nn2CCCCOc2nn(c3ccc([N+](=O)[O-])cc23)CCCCO1"
  recorded-endpoint: "TGI"
  result-value: "> 100 µM"
- molecule: "C=C1CC2(CC(c3ccccc3OC)OC(c3ccccc3OC)C2)OC1=O (centres undefined)"
  recorded-endpoint: "TGI"
  result-value: "3.31 µM"
- molecule: "CC[N+](CC)=c1cc2oc3cc(N(C)C)ccc3nc-2cc1C"
  recorded-endpoint: "TGI"
  result-value: "5.33 µM"
- molecule: "Nc1ncnc2c1ncc(=O)n2C1CC(O)C(CO)O1 (centres undefined)"
  recorded-endpoint: "TGI"
  result-value: "> 100 µM"
- molecule: "CCc1n[nH]c(=O)n1/N=C/c1ccc(/C=N/n2c(CC)n[nH]c2=O)cc1"
  recorded-endpoint: "TGI"
  result-value: "> 100 µM"
- molecule: "CN[C@@H](C)C(=O)N[C@H]1CCS[C@H]2CC(C)(C)[C@@H](C(=O)N[C@H]3c4ccccc4C[C@H]3OCC#CC#CCO[C@@H]3Cc4ccccc4[C@@H]3NC(=O)[C@H]3N4C(=O)[C@@H](NC(=O)[C@H](C)NC)CCS[C@H]4CC3(C)C)N2C1=O"
  recorded-endpoint: "TGI"
  result-value: "0.115 µM"
- molecule: "COc1cc(C(=O)O)ccc1OS(=O)(=O)O"
  recorded-endpoint: "TGI"
  result-value: "> 100 µM"

----------
Test system: 786-0 renal
assay-procedure: NCI tumour cell line growth inhibition, 48 h
Listed below: TGI values for each entry.

- molecule: "O=C(Nc1ccc2[nH]c3ccccc3c2c1)c1ccccc1Cl"
  limit-qualifier: "="
  TGI, µM: 51
- molecule: "O=C(/C=C/c1ccc(O)c(O)c1)OCCCOC(=O)/C=C/c1ccc(O)c(O)c1"
  limit-qualifier: ">"
  TGI, µM: 100
- molecule: "COc1nc(N)c(N=O)c(OCc2ccccc2)n1"
  limit-qualifier: ">"
  TGI, µM: 10
- molecule: "CCOc1ccc([Se][Se]c2ccc(OCC)cc2)cc1"
  limit-qualifier: ">"
  TGI, µM: 100
- molecule: "CN(CCCNCc1ccccn1)Cc1ccccc1O"
  limit-qualifier: ">"
  TGI, µM: 100
- molecule: "C=C1CC(C)(COc2ccc3c(C)c(C)c(=O)oc3c2C)OC1=O (stereo not given)"
  limit-qualifier: "="
  TGI, µM: 3.24
- molecule: "COC(=O)C1=C(O)C(C(=O)OC)[C@@]2(O)[C@@H](C(=O)OC)C(c3ccc(OC(=O)/C=C/c4ccccc4)cc3)C[C@@H]1[C@@H]2C(=O)OC (stereo not given in full)"
  limit-qualifier: "="
  TGI, µM: 42.5
- molecule: "CC(C)(CNC(=O)/C(Cl)=C(/Cl)C(=O)O)CNC(=O)/C(Cl)=C(/Cl)C(=O)O"
  limit-qualifier: ">"
  TGI, µM: 100
- molecule: "CC[N+](CC)=c1cc2oc3cc(N(C)C)ccc3nc-2cc1C"
  limit-qualifier: ">"
  TGI, µM: 100
- molecule: "COc1cccc2[nH]c3c4c(c5c(c3c12)C(=O)N(CN1CCN(C)CC1)C5=O)CCC4"
  limit-qualifier: "="
  TGI, µM: 31.8

----------
Test system: SF-295 CNS
assay-procedure: NCI tumour cell line growth inhibition, 48 h; in the data active = GI50 below about 0.43 µM; inactive = the rest
Outcomes: active, inactive

- compound: "c1cc[n+](C2c3ccccc3C([n+]3ccccc3)c3ccccc32)cc1 (stereo unspecified)"
  qualitative-label: "inactive"
- compound: "O=C(c1ccc(Cl)c(Cl)c1)N1CCN(C(=O)c2ccc(Cl)c(Cl)c2)C1=S"
  qualitative-label: "inactive"
- compound: "O=C(Nc1ccc2[nH]c3ccccc3c2c1)c1ccccc1Cl"
  qualitative-label: "inactive"
- compound: "COc1cccc2[nH]c3c4c(c5c(c3c12)C(=O)N(CN1CCN(C)CC1)C5=O)CCC4"
  qualitative-label: "inactive"
- compound: "CN[C@@H](C)C(=O)N[C@H]1CCS[C@H]2CC(C)(C)[C@@H](C(=O)N[C@H]3c4ccccc4C[C@H]3OCC#CC#CCO[C@@H]3Cc4ccccc4[C@@H]3NC(=O)[C@H]3N4C(=O)[C@@H](NC(=O)[C@H](C)NC)CCS[C@H]4CC3(C)C)N2C1=O"
  qualitative-label: "inactive"
- compound: "O=C(Nc1ncc(Cc2ccccc2)s1)c1sc2ccccc2c1Cl"
  qualitative-label: "inactive"
- compound: "NC(N)=NN=C(c1ccccc1)c1ccccc1"
  qualitative-label: "inactive"
- compound: "C[CH2][Sn]([CH2]C)([O]C(=O)c1ccccc1F)[O]C(=O)c1ccccc1F"
  qualitative-label: "inactive"
- compound: "Nc1ccc(S(=O)(=O)c2ccc(N)cc2)cc1"
  qualitative-label: "inactive"
- compound: "COc1ccc(-c2cn[nH]c2-c2cc(OC)c(OC)c(OC)c2)cc1OCc1ccccc1"
  qualitative-label: "inactive"
- compound: "CCCC[C@H](NC(=O)[C@H]1CCCCN1C)C(=O)N(C)[C@H](C[C@@H](OC(C)=O)c1nc(C(=O)N[C@@H](Cc2ccccc2)C[C@H](C)C(=O)OCC)cs1)C(C)C"
  qualitative-label: "active"
- compound: "C=CC(=O)N1CCN(CCCn2c(=O)c(-c3c(Cl)c(OC)cc(OC)c3Cl)cc3cnc(NC)nc32)CC1"
  qualitative-label: "inactive"
- compound: "Clc1ccc2c(N3CCN(c4ccnc(NC5CCCCC5)n4)CC3)ccnc2c1"
  qualitative-label: "inactive"
- compound: "Oc1c(Br)cc(Br)c2ccc(Cn3cc(-c4ccc(C(F)(F)F)cc4)nn3)nc12"
  qualitative-label: "inactive"
- compound: "O=c1cc(-c2ccc3ccccc3c2)[nH]c2ncc(Cl)cc12"
  qualitative-label: "inactive"
- compound: "O=C1/C=C/[C@@H](O)[C@@H]2C[C@@H](O)C[C@H]2/C=C/CCC[C@H](CCOCc2ccccc2)O1"
  qualitative-label: "active"
